Target: T1, human B7-H3 (4Ig-B7-H3 variant) (Homo sapiens, UniProt Q5ZPR3)
T1 construct: His tag (6xHis) (C)
T1 sequence (Q5ZPR3 with tags, fused parts or gaps): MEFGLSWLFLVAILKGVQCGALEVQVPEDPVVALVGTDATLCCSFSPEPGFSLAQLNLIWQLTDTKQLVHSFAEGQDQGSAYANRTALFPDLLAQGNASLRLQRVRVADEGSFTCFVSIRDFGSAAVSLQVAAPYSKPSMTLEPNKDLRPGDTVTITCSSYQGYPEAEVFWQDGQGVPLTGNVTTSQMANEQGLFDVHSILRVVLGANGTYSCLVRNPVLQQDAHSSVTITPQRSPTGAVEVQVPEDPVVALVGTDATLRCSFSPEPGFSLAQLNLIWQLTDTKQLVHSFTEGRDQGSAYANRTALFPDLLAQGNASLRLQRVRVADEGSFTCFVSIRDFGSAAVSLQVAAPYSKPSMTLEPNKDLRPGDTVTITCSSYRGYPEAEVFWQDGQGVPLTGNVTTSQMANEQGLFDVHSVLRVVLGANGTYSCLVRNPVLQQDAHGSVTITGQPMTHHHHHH
Test: Biacore T200 SPR binding kinetics, mAb capture, soluble ECD of human B7-H3
Details: 1:1 binding model

Molecule: Ab16: mouse hybridoma derived anti-B7-H3 monoclonal antibodies (mAbs) (antibody, V domains shown) VH: EVKLLESGGGLVQPGGSLKLSCAASGFDFSRYWMSWVRQAPGKGLEWIGEINPDSSTINYTPSLKDKFIISRDNAKNTLYLQMSKVRSEDTALYYCARPGFGNYIYAMDYWGQGTSVTVSS VL: DIQMTQTTSSLSASLGDRVTINCRASQDISNFLNWYQQKPDGTVKLLIYYTSRLYLGVPSRFSGSGSGTDYSLTISNLEQEDIATYFCQQGNTLPPTFGGGTKLEIK
ka (1/Ms) huB7-H3, M⁻¹ s⁻¹: 140000
//
Molecule: Ab5: murine anti-B7-H3 mAbs; mouse hybridoma derived (antibody, V domains shown) VH: QVQLQQPGDELVKPGASVKLSCKTSGYTFTTDWMHWVKQRPGQGLEWIGMIHPNSGTTNYNEKFKSKAALTVDKSSSTACMQLSSLTSEDSAVYYCARSYWKWYFDVWGTGTTVTVSS VL: QIVLTQSPAIMSASLGEEITLTCSASSSVSYMHWYQQKSGTSPKLLIYSTSNLASGVPSRFSGSGSGTFYSLTISSVEAEDSADYYCHQWTSYMYTFGGGTKLEIK
ka (1/Ms) huB7-H3, M⁻¹ s⁻¹: 1.3e+06
//
Molecule: Ab6: mouse hybridoma derived anti-B7-H3 monoclonal antibodies (mAbs) (antibody, V domains shown) VH: QVQLQQSGAELMKPGASVKISCKATGYTFSRYWIEWVKQRPGHGLEWIGEILPGSGSTNYNEKFKGKATFTADTSSNTAYMQVSSLTSEDSAVHYCARRGYGYVPYALDYWGQGTSVTVSS VL: EIQMTQTTSSLSASLGDRVTISCRASQDISNSLNWYQQKPDGTVNLLIYYTSRLYSGVPSRFSGSGSGTDYSLTISNLEQEDIATYFCQQGNTLPYTFGGGTKLEIK
ka (1/Ms) huB7-H3, M⁻¹ s⁻¹: 12000
//
Molecule: Ab3: murine anti-B7-H3 mAbs; mouse hybridoma derived (antibody, V domains shown) VH: QVQLQQPGAELVKPGASVKLSCKASGYTFSSYWMHWVKQRPGQGLEWIGLIHPDSGSTNYNEMFKNKATLTVDRSSSTAYVQLSSLTSEDSAVYFCAGGGRLYFDYWGQGTTLTVSS VL: DVVMTQTPLSLPVSLGDQASISCRSSQSLVHSNGDTYLRWYLQKPGQSPKLLIYKVSNRFSGVPDRFSGSGSGTDFTLKITRVEAEDLGVYFCSQSTHVPYTFGGGTKLEIK
ka (1/Ms) huB7-H3, M⁻¹ s⁻¹: 520000
//
Molecule: Ab4: murine anti-B7-H3 mAbs; mouse hybridoma derived (antibody, V domains shown) VH: QVQLQQPGAELVKPGASVKLSCKASGYSFTSYWMHWVKQRPGQGLEWIGMIHPNSGSNNYNEKFKSKATLTVDKSSNTAYMQLSSLTSEDSAVYYCARRLGLHFDYWGQGTTLTVSS VL: DIVMTQSQKFMSTPVGDRVSITCKASQNVGTAVAWYQQKPGQSPKLLIYSASNRYTGVPDRFTGSGSGTDFTLTISNMQSEDLADYFCQQYSSYPYTFGGGTKLEIK
ka (1/Ms) huB7-H3, M⁻¹ s⁻¹: 690000
